Values were extracted from ChEMBL document CHEMBL2385035.

assay: Aqueous solubility of the compound at pH 7.4; assay type: physicochemical; settings: buffer

- Molecule smiles: "CCCC[C@]1(CC)CS(=O)(=O)c2cc(CNC(CC(=O)O)CC(=O)O)c(OC)cc2[C@@H](c2ccccc2)N1"
  solubility: "> 7000 µg/mL"

###

test system: Mus musculus; test: In vivo inhibition of ASBT in C57BL/6J mouse assessed as increase in fecal bile acid excretion measured for 24 hrs; type: functional; conditions: Feces
Please respond with true (1) when measured ED50 is strictly beneath 0.02 mg/kg, and with false (0) in all other cases.

- Compound: "CCCC[C@]1(CC)CS(=O)(=O)c2cc(CN[C@H](CC(=O)O)C(=O)O)c(OC)cc2[C@@H](c2ccccc2)N1"
  Qualitative label: "false (0)"
- Compound: "CCCC[C@]1(CC)CS(=O)(=O)c2cc(OC)c(OC)cc2[C@@H](c2ccccc2)N1"
  Qualitative label: "false (0)"
- Compound: "CCCC[C@]1(CC)CS(=O)(=O)c2cc(CNCCS(=O)(=O)O)c(OC)cc2[C@@H](c2ccccc2)N1"
  Qualitative label: "false (0)"
- Compound: "CCCC[C@]1(CC)CS(=O)(=O)c2cc(CNCC(=O)O)c(OC)cc2[C@@H](c2ccccc2)N1"
  Qualitative label: "true (1)"
- Compound: "CCCC[C@]1(CC)CS(=O)(=O)c2cc(CN[C@@H](CO)C(=O)O)c(OC)cc2[C@@H](c2ccccc2)N1"
  Qualitative label: "true (1)"
- Compound: "CCCC[C@]1(CC)CS(=O)(=O)c2cc(CNC(CC(=O)O)CC(=O)O)c(OC)cc2[C@@H](c2ccccc2)N1 [LINERIXIBAT]"
  Qualitative label: "false (0)"
- Compound: "CCCC[C@]1(CC)CS(=O)(=O)c2cc(CP(=O)(O)O)c(OC)cc2[C@@H](c2ccccc2)N1"
  Qualitative label: "false (0)"

###

target: Ileal sodium/bile acid cotransporter (Rattus norvegicus); assay: Inhibition of rat ASBT expressed in HEK293 cells assessed as inhibition of [3H]-taurocholate uptake after 90 mins by scintillation counting analysis
Sequence (Q62633 whole entry): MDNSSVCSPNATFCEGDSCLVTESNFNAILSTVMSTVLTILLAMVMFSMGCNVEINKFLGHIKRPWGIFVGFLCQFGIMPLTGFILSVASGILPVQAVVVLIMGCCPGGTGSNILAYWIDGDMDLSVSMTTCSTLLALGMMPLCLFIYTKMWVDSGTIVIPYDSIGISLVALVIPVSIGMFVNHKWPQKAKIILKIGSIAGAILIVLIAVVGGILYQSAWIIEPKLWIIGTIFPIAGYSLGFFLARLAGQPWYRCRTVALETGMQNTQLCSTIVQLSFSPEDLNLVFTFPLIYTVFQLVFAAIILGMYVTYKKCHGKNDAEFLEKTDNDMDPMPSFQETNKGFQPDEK
pIC50: −log10 of the molar value.
Respond with Y for pIC50 values of 9 and above, N for values below.

- Molecule smiles: "CCCC[C@]1(CC)CS(=O)(=O)c2cc(CNCC(=O)O)c(OC)cc2[C@@H](c2ccccc2)N1"
  Target desc: "Ileal sodium/bile acid cotransporter (Rattus norvegicus)"
  Qualitative label: "Y"
- Molecule smiles: "CCCC[C@]1(CC)CS(=O)(=O)c2cc(CNC(CC(=O)O)CC(=O)O)c(OC)cc2[C@@H](c2ccccc2)N1"
  Target desc: "Ileal sodium/bile acid cotransporter (Rattus norvegicus)"
  Qualitative label: "N"
- Molecule smiles: "CCCC[C@]1(CC)CS(=O)(=O)c2cc(CNCCS(=O)(=O)O)c(OC)cc2[C@@H](c2ccccc2)N1"
  Target desc: "Ileal sodium/bile acid cotransporter (Rattus norvegicus)"
  Qualitative label: "N"
- Molecule smiles: "CCCC[C@]1(CC)CS(=O)(=O)c2cc(OC)c(OC)cc2[C@@H](c2ccccc2)N1"
  Target desc: "Ileal sodium/bile acid cotransporter (Rattus norvegicus)"
  Qualitative label: "N"

###

Each record here notes measured Cmax.
test: Cmax in Sprague-Dawley rat systemic blood at 10 mg/kg, po; format: ADME, organism-based; parameters: dose 10 mg/kg, route oral

- Molecule smiles: "CCCC[C@]1(CC)CS(=O)(=O)c2cc(OCCP(=O)(O)O)c(OC)cc2[C@@H](c2ccccc2)N1"
  Cmax, ng/mL: 16
- Molecule smiles: "CCCC[C@]1(CC)CS(=O)(=O)c2cc(OCCCS(=O)(=O)O)c(OC)cc2[C@@H](c2ccccc2)N1"
  Cmax, ng/mL: 1
- Molecule smiles: "CCCC[C@]1(CC)CS(=O)(=O)c2cc(OC)c(OC)cc2[C@@H](c2ccccc2)N1"
  Cmax, ng/mL: 19
- Molecule smiles: "CCCC[C@]1(CC)CS(=O)(=O)c2cc(CN(C)CC(=O)O)c(OC)cc2[C@@H](c2ccccc2)N1"
  Cmax, ng/mL: 1
- Molecule smiles: "CCCC[C@]1(CC)CS(=O)(=O)c2cc(OCCS(=O)(=O)O)c(OC)cc2[C@@H](c2ccccc2)N1"
  Cmax, ng/mL: 7
- Molecule smiles: "CCCC[C@]1(CC)CS(=O)(=O)c2cc(C(=O)NCS(=O)(=O)O)c(OC)cc2[C@@H](c2ccccc2)N1"
  Cmax, ng/mL: 4
- Molecule smiles: "CCCC[C@]1(CC)CS(=O)(=O)c2cc(CNCC(=O)O)c(OC)cc2[C@@H](c2ccccc2)N1"
  Cmax, ng/mL: 1
- Molecule smiles: "CCCC[C@]1(CC)CS(=O)(=O)c2cc(CN[C@@H](CC(=O)O)C(=O)O)c(OC)cc2[C@@H](c2ccccc2)N1"
  Cmax, ng/mL: 1
- Molecule smiles: "CCCC[C@]1(CC)CS(=O)(=O)c2cc(OCC(=O)O)c(OC)cc2[C@@H](c2ccccc2)N1"
  Cmax, ng/mL: 26
- Molecule smiles: "CCCC[C@]1(CC)CS(=O)(=O)c2cc(C(=O)NCCS(=O)(=O)O)c(OC)cc2[C@@H](c2ccccc2)N1"
  Cmax, ng/mL: 38
- Molecule smiles: "CCCC[C@]1(CC)CS(=O)(=O)c2cc(CN(CC(=O)O)CC(=O)O)c(OC)cc2[C@@H](c2ccccc2)N1"
  Cmax, ng/mL: 43
- Molecule smiles: "CCCC[C@]1(CC)CS(=O)(=O)c2cc(CN[C@@H](CO)C(=O)O)c(OC)cc2[C@@H](c2ccccc2)N1"
  Cmax, ng/mL: 24
- Molecule smiles: "CCCC[C@]1(CC)CS(=O)(=O)c2cc(OCCCP(=O)(O)O)c(OC)cc2[C@@H](c2ccccc2)N1"
  Cmax, ng/mL: 7
- Molecule smiles: "CCCC[C@]1(CC)CS(=O)(=O)c2cc(CP(=O)(O)O)c(OC)cc2[C@@H](c2ccccc2)N1"
  Cmax, ng/mL: 3
- Molecule smiles: "CCCC[C@]1(CC)CS(=O)(=O)c2cc(C(CC(=O)O)CC(=O)O)c(OC)cc2[C@@H](c2ccccc2)N1"
  Cmax, ng/mL: 19
- Molecule smiles: "CCCC[C@]1(CC)CS(=O)(=O)c2cc(CN[C@H](CC(=O)O)C(=O)O)c(OC)cc2[C@@H](c2ccccc2)N1"
  Cmax, ng/mL: 1
- Molecule smiles: "CCCC[C@]1(CC)CS(=O)(=O)c2cc(CS(=O)(=O)O)c(OC)cc2[C@@H](c2ccccc2)N1"
  Cmax, ng/mL: 3
- Molecule smiles: "CCCC[C@]1(CC)CS(=O)(=O)c2cc(CNC(=O)CS(=O)(=O)O)c(OC)cc2[C@@H](c2ccccc2)N1"
  Cmax, ng/mL: 26
